measurementTarget: T1, cMet-Fc fusion protein (extracellular domain of the cMet receptor expressed as an Fc-fusion protein) (human, UniProt P08581 25-932)
T1 construct: extracellular domain; also called soluble cMet-Fc-fusion protein; soluble cMet receptor; not shown: Fc part
T1 sequence (P08581 25-932): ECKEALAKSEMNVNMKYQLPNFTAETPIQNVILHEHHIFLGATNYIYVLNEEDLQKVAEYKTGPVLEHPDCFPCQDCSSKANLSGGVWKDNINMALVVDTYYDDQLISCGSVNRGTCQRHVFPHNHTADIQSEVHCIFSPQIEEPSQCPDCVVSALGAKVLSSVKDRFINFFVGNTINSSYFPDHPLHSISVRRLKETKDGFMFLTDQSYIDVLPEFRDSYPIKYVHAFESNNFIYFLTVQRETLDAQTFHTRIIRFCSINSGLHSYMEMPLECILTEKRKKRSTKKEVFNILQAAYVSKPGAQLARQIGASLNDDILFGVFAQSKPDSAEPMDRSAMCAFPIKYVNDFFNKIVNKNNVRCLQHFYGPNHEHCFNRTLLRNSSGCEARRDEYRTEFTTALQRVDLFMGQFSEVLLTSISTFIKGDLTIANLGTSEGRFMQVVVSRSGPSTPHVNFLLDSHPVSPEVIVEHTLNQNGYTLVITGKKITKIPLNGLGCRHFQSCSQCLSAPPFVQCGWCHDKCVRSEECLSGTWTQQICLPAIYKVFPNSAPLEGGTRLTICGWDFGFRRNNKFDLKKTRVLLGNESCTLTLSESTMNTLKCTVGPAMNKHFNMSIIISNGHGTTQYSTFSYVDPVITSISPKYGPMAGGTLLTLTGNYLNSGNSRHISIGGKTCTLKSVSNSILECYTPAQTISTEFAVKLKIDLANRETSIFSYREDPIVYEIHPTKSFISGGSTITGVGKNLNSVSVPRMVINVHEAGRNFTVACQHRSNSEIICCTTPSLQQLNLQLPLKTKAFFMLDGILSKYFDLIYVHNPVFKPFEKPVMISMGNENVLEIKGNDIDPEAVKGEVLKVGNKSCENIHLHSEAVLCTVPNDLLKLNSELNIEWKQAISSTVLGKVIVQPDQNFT
procedureDetails: phage ELISA on cMet-Fc, competitor HGF 500 ng/mL
Label scheme for % of binding in the absence of HGF: label 0 (below 50%), label 1 (50% to below 80%), label 2 (80% or more)

binder	category
AQELFQILEKQMWSDFMEWATP [15-D02 peptide-displaying phage (SEQ ID NO: 474)]	label 2

Q) Class for AGVLQCIGFEWFCDIWGT [423-C11 peptide-displaying phage (SEQ ID NO: 022)] ?
A) label 1

Q) Lab log: AGYPECKDNYHWCEWKGT [457-A09 peptide-displaying phage (SEQ ID NO: 024)] — assign % of binding in the absence of HGF category
A) label 1

Q) Looking at AQAYEWWADESIFNHGYYWGHQ [94-B08 peptide-displaying phage (SEQ ID NO: 470)] , which class would you pick?
A) label 2

Q) Each binder maps to one class by % of binding in the absence of HGF. Which class for AGDWICHGPPMFECEWVGT [547-H07 peptide-displaying phage (SEQ ID NO: 058)] ?
A) label 0

Q) Where would AGNYFCAGSPSFSCYFMGT [330-C10 peptide-displaying phage (SEQ ID NO: 054)] land among the classes by reported % of binding in the absence of HGF?
A) label 0
